# growth inhibition annotations
- ASSAY OVERVIEW: NCI Yeast Anticancer Drug Screen. Data for the wt1 strain (AID 149);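 note: 0% = growth of vehicle-treated wt1 cultures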
- MEASUREMENT PARAMETERS: S. cerevisiae wt1 strain (SPY 50644) growth inhibition; at 1.2 µM; active compounds read high
This is part of a sample that, as a whole, favours compounds with a hit. Of some 79,000 tested, about 15% had one in any assay.
Entry rule: numbers only, all in %.

Observe how each entry below is paired with its result.
COMPOUND	growth inhibition [%]
CCN(CC)CCNc1ccc(C)c2sc3ccc(O)cc3c(=O)c12	-7
CN(C)CCCn1c2c3ccccc3ccc2c2oc(=O)c3ccccc3c21	-10
N#CC1OB(O)c2ccccc21 (stereo not drawn)	-5
CC(C)(N=Nc1ccc(Cl)cc1)[N+](=O)[O-]	10
O=[N+]([O-])c1ccc2[nH]c3c(-c4ccccc4)nccc3c2c1	-4

Query: For the compound N#C/C(=C\NC(=S)Nc1ccc(S(N)(=O)=O)cc1)C(=O)c1ccc2ccccc2c1 , give its reported growth inhibition.
Response: 2

Query: For the compound NC(CCCCCCCCCCCCC(N)C(=O)c1ccccc1)C(=O)c1ccccc1 (stereo not drawn) , give its reported growth inhibition.
Response: -4

Query: For the compound CCN(CC)CCNc1ccc2ncn3c4ccc(O)cc4c(=O)c1c23 , give its reported growth inhibition.
Response: 0

----------
- ASSAY OVERVIEW: NCI Yeast Anticancer Drug Screen. Data for the cln2 rad14 strain (AID 165);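 note: 0% = growth equal to vehicle treated cultures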
- MEASUREMENT PARAMETERS: S. cerevisiae cln2 rad14 strain, at 50.0 µM, active compounds read high
About 79,000 compounds went through this panel and 15% of them were active in at least one assay; those are over-represented in the sample as a whole.
MEASUREMENT LABEL: growth inhibition (%)
Entry rule: numbers only, all in %.

Observe how each entry below is paired with its result.
MOLECULE	growth inhibition / %
O=C1CSC(c2ccccc2)N1c1ccc(-c2ccc(-n3c(-c4ccccc4)nc4ccccc4c3=O)cc2)cc1 (stereo unspecified)	36
COc1ccc2nc(CCc3ccccc3)ccc2c1	-7.95
CCCCCc1c(CCCC)c(=O)[nH]c2cc(CNCC(OC)OC)ccc12	86.5
CCCCS(=O)(=O)Nc1ccc(Nc2c3ccccc3nc3ccccc23)c(OC)c1	77
CC(=O)N1C=Cc2c(c(C)c3c([nH]c4ccccc43)c2C)C1	79.8

Shift focus to the following entry.
Query: For the molecule CC(C)=CCC/C(C)=C/CN1C(=O)C=CC1=O , give its reported growth inhibition.
Response: 99.3

----------
- ASSAY OVERVIEW: NCI Yeast Anticancer Drug Screen. Data for the cln2 rad14 strain (AID 165);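 note: 0% = growth equal to vehicle treated cultures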
- MEASUREMENT PARAMETERS: S. cerevisiae cln2 rad14 strain, at 50.0 µM
About 79,000 compounds went through this panel and 15% of them were active in at least one assay; those are over-represented in the sample as a whole. Activity calls are given as the source filed them. Rule as the data show it: active = growth inhibition above about 70%; inactive = the rest.
Tick one outcome: true (1) = active, false (0) = inactive

COMPOUND	ANSWER LABEL
COc1ccc2c3c1OC(C)C31CC(=O)CCC1CC2 (stereo not given)	false (0)
CNC(=O)OCc1c2ccncc2c(C)c2c1[nH]c1ccccc12	true (1)
CSc1nc(-c2ccccc2)nc(=[N+]2CCOCC2)s1	false (0)
CCC1(O)C(=O)OCc2c1cc1n(c2=O)Cc2cc3c(N)cccc3nc2-1 (stereo not given)	false (0)
CN(C)CCNc1ccc2ncn3c4ccc(O)cc4c(=O)c1c23	false (0)

Query: Test call, this compound: C=CCNC1=C2C[C@@H](C)C[C@H](OC)[C@H](O)[C@@H](C)/C=C(\C)[C@H](OC(N)=O)[C@@H](OC)/C=C\C=C(/C)C(=O)NC(=CC1=O)C2=O
Response: true (1)

Query: Test call, this compound: CC(C)NCCCNc1c2ccccc2nc2cccc([N+](=O)[O-])c12
Response: true (1)

Query: Test call, this compound: Cc1cc2nc3ccccc3n2c2ccccc12
Response: false (0)

Query: Test call, this compound: NC(=S)N/N=C1\c2ccccc2CCC1CCC1(O)CCc2ccccc2C1=O (stereo not given)
Response: true (1)

Query: Test call, this compound: CCC[CH2][Ge]([CH2]CCC)([CH2]CCC)[O]C(=O)C(O)c1ccccc1 (stereo not given)
Response: true (1)

----------
- ASSAY OVERVIEW: NCI Yeast Anticancer Drug Screen. Data for the rad52 strain (AID 147);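 note: 0% = growth of vehicle-treated control cultures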
- MEASUREMENT PARAMETERS: S. cerevisiae rad52 mutant growth inhibition; at 3.7 µM
This is part of a sample that, as a whole, favours compounds with a hit. Of some 79,000 tested, about 15% had one in any assay. Active and inactive are the calls of the source. Cut-off read from the data, not from the text of the source: active = growth inhibition above about 70%; inactive = the rest.
Tick one outcome: Y for active, N for inactive

MOLECULE	ANSWER LABEL
CCC(OC(C)=O)C1CC(C(C)C)CCC1C (stereo not given)	N
CN(CCOc1ccc(Cl)cc1)CCOc1ccc(Cl)cc1	N

Query: Test call, this molecule: O=[N+]([O-])/C=C/c1cc2ccc3ccccc3c2[nH]1
Response: N

Query: Test call, this molecule: CC(C)NCCCNc1c2ccccc2nc2cccc([N+](=O)[O-])c12
Response: Y

Query: Test call, this molecule: C=CCNC1=C2C[C@@H](C)C[C@H](OC)[C@H](O)[C@@H](C)/C=C(\C)[C@H](OC(N)=O)[C@@H](OC)/C=C\C=C(/C)C(=O)NC(=CC1=O)C2=O
Response: N

Query: Test call, this molecule: COc1ccc2nc3cccc([N+](=O)[O-])c3c(NCCNCCN(C)C)c2c1
Response: N

Query: Test call, this molecule: CC(C)OC(=O)NNc1cccc(Cl)c1
Response: N

Query: Test call, this molecule: CNC(=S)N/N=C(/C)CCC/C(C)=N/NC(=S)NC
Response: N

Query: Test call, this molecule: O=C(NOC(=O)c1ccc([N+](=O)[O-])cc1)c1ccc(Cl)cc1
Response: N

Query: Test call, this molecule: CCCCCCNCCCNc1c2ccccc2nc2cccc([N+](=O)[O-])c12
Response: Y

----------
- ASSAY OVERVIEW: NCI Yeast Anticancer Drug Screen. Data for the rad18 strain (AID 177)
- MEASUREMENT PARAMETERS: S. cerevisiae rad18 mutant growth inhibition; at 33.0 µM; active compounds read high
Compounds without any hit were thinned out: in the full panel of roughly 79,000, 15% have a hit.
MEASUREMENT LABEL: growth inhibition (%)
Entry rule: numbers only, all in %.

Observe how each entry below is paired with its result.
MOLECULE	UOM	growth inhibition
Cc1ccc(S(=O)(=O)NC(=O)C2C(=O)CC3(CCCCC3)CC2=O)cc1	%	14
Cc1ccc(NC(Nc2ccc(C)cc2C)=C(C(Cl)=C(Cl)Cl)[N+](=O)[O-])c(C)c1	%	99

Query: For the molecule CN(C)CC1=Nc2cccc3cccc(c23)N1 , give its reported growth inhibition.
Response: 1

Query: For the molecule O=C1c2ccccc2-c2cc3ccccc3c(=O)n21 , give its reported growth inhibition.
Response: 63

Query: For the molecule CO[C@@]1([C@@H](Cl)c2ccccc2)C(=O)N(C)/C(=C\c2ccccc2)C(=O)N1C , give its reported growth inhibition.
Response: 4

----------
- ASSAY OVERVIEW: NCI Yeast Anticancer Drug Screen. Data for the mec2-1 strain (AID 157)
- MEASUREMENT PARAMETERS: S. cerevisiae mec2-1 strain, at 100.0 µM, active compounds read high
The panel holds about 79,000 compounds, 15% with a hit somewhere; the sample as a whole holds those more often.
MEASUREMENT LABEL: growth inhibition (%)
Entry rule: numbers only, all in %.

Observe how each entry below is paired with its result.
MOLECULE	UOM	READOUT VALUE
CCN(CC)C(=S)SC(=S)N(CC)CC	%	97
CC(C)[Si]1(C(C)C)OCC2OC(n3cnc4c(N)ncnc43)C(N)C2O[Si](C(C)C)(C(C)C)O1 (stereo unspecified)	%	98
COc1ccc(C(C)c2cc3c(cc2OC(C)O)OCO3)cc1 (stereo unspecified)	%	87
Oc1c2c(c(O)c3ccccc13)C1(N=N2)c2ccccc2Oc2ccccc21	%	94
NC(=O)NC1C(c2ccccc2)=C1c1ccccc1	%	27
CC(=O)CC(c1ccccc1)c1c(O)c2ccccc2oc1=O (stereo unspecified)	%	67

Query: For the molecule CC(=O)O[C@H]1CC[C@@]2(C)C(=CC[C@@H]3C2CC[C@]2(C)C(=O)NC(=O)CC32)C1 (stereo partly specified) , give its reported growth inhibition.
Response: -23

Query: For the molecule O=C(Nc1cccs1)c1ccccc1 , give its reported growth inhibition.
Response: 51

Query: For the molecule CC(=O)NC(c1nc2cc(C)c(C)cc2[nH]1)c1nc2cc(C)c(C)cc2[nH]1 , give its reported growth inhibition.
Response: 78

Query: For the molecule CCCCCc1c(CCCC)c(=O)[nH]c2cc(CNCC(OC)OC)ccc12 , give its reported growth inhibition.
Response: 95

Query: For the molecule O=C1c2ccccc2N2OC3(N4CCCC4)CCCCC3C12c1ccccc1 (stereo unspecified) , give its reported growth inhibition.
Response: 98
